Assay: differential killing of epithelial or mesenchymal cells, primary screen, imaging, PC-3E GFP, TEM4-18 mCherry, co-culture (AID 1345086);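 further: cells exposed to compound for 72 h before imaging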
Conditions: imaging cell counts, measured here: epithelial PC-3E GFP cell survival, at 1 µM
Readout label: normalised cell number
Please give only the number in your answer, with no unit.

Solved cases (9 shown):
Molecule: Cc1c(O)c(=O)n(-c2ccccc2)n1C
Meas value: 1.09
//
Molecule: COc1c(N2CC[C@@H](CN)C2)c(F)cc2c(=O)c(C(=O)O)cn(CCCN3C(=O)c4ccccc4C3=O)c12
Meas value: 1.03
//
Molecule: C[C@H]1OC(n2cc(F)c(=O)[nH]c2=O)C(O)[C@@H]1O (stereo not given in full)
Meas value: 1.27
//
Molecule: OCC1O[C@H](O[C@H]2OC(CO)[C@@H](O)[C@@H](O)C2O)C(O)[C@H](O)[C@@H]1O (stereo not given in full)
Meas value: 1.01
//
Molecule: CC(CCC(=O)O)[C@H]1CCC2C3CC[C@@H]4CCCC[C@]4(C)C3CC[C@@]21C (stereo not given in full)
Meas value: 1.12
//
Molecule: CC1CC2OC2/C=C/C(O)CC(=O)O1 (stereo not given)
Meas value: 1.06
//
Molecule: C=C(C)n1cc(C(=O)OC)c(=O)c2cc(F)c(F)c(OC)c21
Meas value: 0.99
//
Molecule: O=C[C@H](O)[C@@H](O)[C@H](O)CO
Meas value: 0.97
//
Molecule: O=C1CCC[C@@H](N2C(=S)OC[C@H]2c2ccccc2)C1
Meas value: 1.1

Q. Fill blank: measured normalised cell number of the molecule C=CC(C)(C)c1cccc2[nH]c3c(c12)C[C@@H]1CC[C@@]2(O)C4=CC(=O)[C@@H]5O[C@@]4(CC[C@]2(C)[C@@]31C)CC5(C)C is ____.
A. 1.11

====

Assay: differential killing of epithelial or mesenchymal cells, primary screen, imaging, PC-3E GFP, TEM4-18 mCherry, co-culture (AID 1345086);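 further: cells exposed to compound for 72 h before imaging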;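 on red/green cell ratio (normalised): normalised mesenchymal count divided by normalised epithelial count so high means epithelial killing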
Conditions: imaging cell counts, at 1 µM, actives lie on both sides, counts scaled to control wells, 1 = unselective
Readout label: red/green cell ratio (normalised)
Please give only the number in your answer, with no unit.

Solved cases (4 shown):
Molecule: NC(CSSCC(N)C(=O)O)C(=O)O (stereo not given)
Readout label: red/green cell ratio (normalised)
Meas value: 0.92
//
Molecule: COc1c(O)cc2c(c1O)[C@H]1O[C@H](CO)[C@@H](O)[C@H](O)[C@@H]1OC2=O
Readout label: red/green cell ratio (normalised)
Meas value: 0.9
//
Molecule: O=C1C=CC2(Oc3cccc4cccc(c34)O2)[C@H]2[C@H]1[C@@H](O)C=C[C@H]2O
Readout label: red/green cell ratio (normalised)
Meas value: 0.98
//
Molecule: COc1c(N2CC[C@@H](CN)C2)c(F)cc2c(=O)c(C(=O)O)cn(Cc3ccc4ccccc4c3)c12
Readout label: red/green cell ratio (normalised)
Meas value: 1.09

// next item, red/green cell ratio (normalised) requested
Q. Fill blank: measured red/green cell ratio (normalised) of the molecule NCC1O[C@@H](OC2C(N)C[C@@H](N)C(OC3OC(CO)[C@@H](O)C(N)[C@H]3O)[C@H]2O)C(O)CC1O (stereo not given in full) is ____.
A. 1.05

====

System: F380Y/beta1
Experiment: modulators of BK channel variants, profiling panel, selectivity assay, cell-based, U2OS BacMam, thallium flux, beta subunits (AID 1259406);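 further: initial slope of Thallos dye fluorescence rise after thallium is added; log ratio against the mean of 0.3% DMSO vehicle wells on the same plate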
Conditions: at 30 µM
Consider the cut-off 0.004. If the recorded log fold change Tl+ flux is strictly smaller, the label is label 1; if not, the label is label 0.

Compound: NC(=O)c1nnn(-c2ccc([N+](=O)[O-])cc2)c1-c1ccccc1
Category label: label 1

Q. Regarding O=C(O)C[C@H](O)C[C@H](O)/C=C/c1c(C2CC2)nc2ccccc2c1-c1ccc(F)cc1 , kindly confirm whether its log fold change Tl+ flux is beneath 0.004.
A. label 0

Q. Regarding Cc1c(C(=O)CSc2n[nH]c(=O)n2C(C)c2ccccc2)sc2ccc(Cl)cc12 (stereo unspecified) , kindly confirm whether its log fold change Tl+ flux is beneath 0.004.
A. label 0

Q. Regarding CC(=O)NC[C@H]1CN(c2ccc(N3CCOCC3)c(F)c2)C(=O)O1 , kindly confirm whether its log fold change Tl+ flux is beneath 0.004.
A. label 0

Q. Regarding COCCCNC1=C(C#N)C(=O)NC(c2cccs2)S1 (stereo unspecified) , kindly confirm whether its log fold change Tl+ flux is beneath 0.004.
A. label 1

Q. Regarding Cn1cnc([N+](=O)[O-])c1Sc1cccs1 , kindly confirm whether its log fold change Tl+ flux is beneath 0.004.
A. label 0

====

Experiment: antimalarial activity against Dd2 strain (AID 2302);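 further: 0% = DMSO untreated growth and 100% = chloroquine plus artemisinin killed control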
Conditions: P. falciparum Dd2 in RBCs, LDH growth readout, 72 h; at 2 µM; stronger effect = higher value
# label = satisfied if growth inhibition >= 80% else not satisfied

Reference set, count: 3
Compound: COc1cc2nc(N3CCC(CNC(=O)c4ccc(-c5ccc(-c6noc(C)n6)cc5)cc4)CC3)nc(N)c2cc1OC
Category label: satisfied

Compound: C=CC[C@H](C[C@H](O)[C@H](Cc1ccccc1)NC(=O)c1nn(-c2ccccc2)nc1C)C(=O)NC1CCCCC1
Category label: not satisfied

Compound: CC(Oc1ccc(Cl)cc1)C(=O)N(C)C1CCN(CCCCCNC(=O)/C=C/c2ccc(Cl)c(Cl)c2)CC1 (stereo not given)
Category label: not satisfied

We now examine a further compound.
Q. Answer whether growth inhibition of CCNC(=NCc1ccccc1)NCCCCCCNC(=NCc1ccccc1)NCC is greater than or equal to 80%.
A. satisfied

====

Biological target: Calcium-dependent protein kinase 4 (Plasmodium falciparum (isolate 3D7))
Experiment: PfCDPK4 kinase inhibitors, biochemical, TCAMS library (AID 1159588)
Conditions: recombinant PfCDPK4, Kinase-Glo ATP depletion luminescence
Measured potencies and affinities stand elsewhere. Active and inactive are the calls of the source. The limit is not given here; nearly all actives have IC50 up to about 0.91 µM.
Readout label: outcome

Solved cases (10 shown):
Compound: O=[N+]([O-])c1cccc(CNC2CCN(Cc3ccc(-c4ccccc4)cc3)CC2)c1
outcome: inactive
--
Compound: O=C(Nc1cccc(Cl)c1)c1cc2ccccc2cc1O
outcome: inactive
--
Compound: CCCc1cc(Cc2cnc(N)nc2N)c2cccnc2c1OC
outcome: inactive
--
Compound: CC(C(=O)N1CCCC1)N1CCN(C(c2ccccc2)c2ccccc2)CC1 (stereo not given)
outcome: inactive
--
Compound: CCN(CCCN1CCCCC1)c1cc(C)nc(Nc2ccc3c(c2)CCC3)n1
outcome: inactive
--
Compound: Fc1cccc(C=NNc2ccnc3ccc(C(F)(F)F)cc23)c1
outcome: inactive
--
Compound: O=C(NCCN1CCC(c2ccncc2)CC1)c1cccc(Nc2nccc(Nc3ccc(Oc4ccccc4)cc3)n2)c1
outcome: inactive
--
Compound: CS(=O)(=O)CCNCc1cccc(-c2ccc3c(Nc4ccc(Oc5cccnc5)cc4)ccnc3c2)c1
outcome: inactive
--
Compound: CNc1ccc(CNCc2cccc(-c3ccc(-c4nc5c(C)cccc5[nH]4)s3)c2)cc1
outcome: inactive
--
Compound: COc1ccc2nccc([C@@H](O)CN3CCC(NC(=O)c4ccc(C5(C(F)(F)F)N=N5)cc4)CC3)c2c1
outcome: inactive

Q. Recorded outcome for Cc1ccc(O)c(-c2cc(C(=O)Nc3ccc(S(=O)(=O)N4CCCCC4)cc3)[nH]n2)c1 with Calcium-dependent protein kinase 4 (Plasmodium falciparum (isolate 3D7)), please?
A. inactive

Q. Recorded outcome for CC(C)CCNCC(O)Cn1c2ccc(Cl)cc2c2cc(Cl)ccc21 (stereo not given) with Calcium-dependent protein kinase 4 (Plasmodium falciparum (isolate 3D7)), please?
A. inactive

====

Entries annotated with measured log fold change Tl+ flux
Test system: R275C/beta1
Assay: modulators of BK channel variants, profiling panel, selectivity assay, cell-based, U2OS BacMam, thallium flux, beta subunits (AID 1259406);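 further: initial slope of Thallos dye fluorescence rise after thallium is added; log ratio against the mean of 0.3% DMSO vehicle wells on the same plate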
Details: at 30 µM
Please give only the number in your answer, with no unit.

Compound: O=C(Nc1c(S(=O)(=O)c2ccccc2)csc1Br)c1ccccc1Cl
Measurement target: R275C/beta1
log fold change Tl+ flux: 0.0155

Q. Fill blank: measured log fold change Tl+ flux of the compound CC(C)(C)OC(=O)N1CCC(c2nc(-c3ccc(Cl)s3)cs2)CC1 is ____.
A. 0.0364

Q. Fill blank: measured log fold change Tl+ flux of the compound COc1cccc(CC(=O)NC2CCN(c3nccc(C(F)(F)F)n3)CC2)c1 is ____.
A. -0.0259

Q. Fill blank: measured log fold change Tl+ flux of the compound O=c1ncc(F)c[nH]1 is ____.
A. 0.0224

Q. Fill blank: measured log fold change Tl+ flux of the compound CN1[C@@H]2CCC[C@H]1CC(NC(=O)c1nn(C)c3ccccc13)C2 (stereo partly specified) is ____.
A. 0.0105

Q. Fill blank: measured log fold change Tl+ flux of the compound CC(=O)Oc1ccc(OC(C)=O)c2cc3c(OC(C)=O)ccc(OC(C)=O)c3cc12 is ____.
A. -0.0199

====

Test: ovarian cancer cell viability with rucaparib, profiling panel, oncology-focused library, rucaparib conditional (AID 1508598)
Conditions: patient-derived ovarian cancer cells, CellTiter-Glo viability, 144 h; at 5 µM; OCI-P5x cells; with rucaparib 20 µM; stronger effect = lower value; 100% = cells with rucaparib alone
Consider the cut-off 70%. If the recorded viability is strictly smaller, the label is MET; if not, the label is NOT MET.

Q. Regarding O=c1[nH]c(-c2ccc(C(F)(F)F)cc2)nc2c1CSCC2 , kindly confirm whether its viability is beneath 70%.
A. NOT MET

Q. Regarding O=c1cc(-c2cccc3c2Sc2ccccc2S3)oc(N2CCOCC2)c1 , kindly confirm whether its viability is beneath 70%.
A. MET

Q. Regarding Cc1ccc(S(=O)(=O)/C=C/C#N)cc1 , kindly confirm whether its viability is beneath 70%.
A. MET

Q. Regarding N#Cc1c(O)c2c(-c3ccc(-c4ccccc4O)cc3)csc2[nH]c1=O , kindly confirm whether its viability is beneath 70%.
A. NOT MET

Q. Regarding O=C(O)Cc1cccc(OCCCN(Cc2cccc(C(F)(F)F)c2Cl)CC(c2ccccc2)c2ccccc2)c1 , kindly confirm whether its viability is beneath 70%.
A. MET
